B1: library; a variant is named by its letters at N, in order (parent)
chain: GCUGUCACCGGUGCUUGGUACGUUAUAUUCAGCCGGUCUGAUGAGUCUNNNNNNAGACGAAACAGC

Variants of: B1
testSummary: normalized RNA/DNA level without ligand (relative to sTRSVctl = 100) (log10 (% of sTRSVctl)); HEK293T overexpressing SLC46A1; higher = less ribozyme self-cleavage, higher mRNA level
measurementParameters: without (6R,S)-folinic acid; ligand present: no
Give normalized RNA/DNA level without ligand (log10) for every item shown.
Numbers only.

Some variants with known normalized RNA/DNA level without ligand (log10) results, for comparison:
{"columns": ["monomerSequence", "experimentalResult"],
 "data": [
  ["GCUGUCACCGGUGCUUGGUACGUUAUAUUCAGCCGGUCUGAUGAGUCUUGAUUAAGACGAAACAGC [UGAUUA]", 1.95],
  ["GCUGUCACCGGUGCUUGGUACGUUAUAUUCAGCCGGUCUGAUGAGUCUGCAAUCAGACGAAACAGC [GCAAUC]", 2.03],
  ["GCUGUCACCGGUGCUUGGUACGUUAUAUUCAGCCGGUCUGAUGAGUCUUGACAAAGACGAAACAGC [UGACAA]", 1.95],
  ["GCUGUCACCGGUGCUUGGUACGUUAUAUUCAGCCGGUCUGAUGAGUCUUUCGACAGACGAAACAGC [UUCGAC]", 1.99],
  ["GCUGUCACCGGUGCUUGGUACGUUAUAUUCAGCCGGUCUGAUGAGUCUCCGGAAAGACGAAACAGC [CCGGAA]", 2]
]}

Batch request: normalized RNA/DNA level without ligand (log10) for each of the following variants.
1. GCUGUCACCGGUGCUUGGUACGUUAUAUUCAGCCGGUCUGAUGAGUCUAUCCGAAGACGAAACAGC [AUCCGA]
2. GCUGUCACCGGUGCUUGGUACGUUAUAUUCAGCCGGUCUGAUGAGUCUAGAUAAAGACGAAACAGC [AGAUAA]
3. GCUGUCACCGGUGCUUGGUACGUUAUAUUCAGCCGGUCUGAUGAGUCUCCCGCCAGACGAAACAGC [CCCGCC]
4. GCUGUCACCGGUGCUUGGUACGUUAUAUUCAGCCGGUCUGAUGAGUCUGCGUCAAGACGAAACAGC [GCGUCA]
5. GCUGUCACCGGUGCUUGGUACGUUAUAUUCAGCCGGUCUGAUGAGUCUAUUCAAAGACGAAACAGC [AUUCAA]
6. GCUGUCACCGGUGCUUGGUACGUUAUAUUCAGCCGGUCUGAUGAGUCUACGCUCAGACGAAACAGC [ACGCUC]
7. GCUGUCACCGGUGCUUGGUACGUUAUAUUCAGCCGGUCUGAUGAGUCUGUCAAAAGACGAAACAGC [GUCAAA]

RESULT:
1: 2; 2: 1.96; 3: 2.08; 4: 2.06; 5: 2; 6: 2.05; 7: 1.99

Count: 3. Required value per item: normalized RNA/DNA level without ligand (log10).
1. GCUGUCACCGGUGCUUGGUACGUUAUAUUCAGCCGGUCUGAUGAGUCUAGAUUCAGACGAAACAGC [AGAUUC]
2. GCUGUCACCGGUGCUUGGUACGUUAUAUUCAGCCGGUCUGAUGAGUCUUUUGUGAGACGAAACAGC [UUUGUG]
3. GCUGUCACCGGUGCUUGGUACGUUAUAUUCAGCCGGUCUGAUGAGUCUUAGCGCAGACGAAACAGC [UAGCGC]

RESULT:
1. 2.05
2. 1.73
3. 2

Hey, just so you know, these numbers are from the supplement of paper PMC6757056.
